Cited source: patent US20080081814A1

# MEASURED ON: UniProt:P00742
# Sequence (P00742 235-488 limits assumed): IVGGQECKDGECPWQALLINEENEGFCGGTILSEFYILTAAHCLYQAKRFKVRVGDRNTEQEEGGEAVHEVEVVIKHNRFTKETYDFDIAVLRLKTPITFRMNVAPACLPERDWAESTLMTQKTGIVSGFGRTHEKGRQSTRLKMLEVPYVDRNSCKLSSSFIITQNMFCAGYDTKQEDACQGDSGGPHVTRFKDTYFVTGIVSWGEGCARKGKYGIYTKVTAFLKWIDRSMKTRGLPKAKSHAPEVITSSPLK
# Sequence (P00742 41-179 partner limits assumed): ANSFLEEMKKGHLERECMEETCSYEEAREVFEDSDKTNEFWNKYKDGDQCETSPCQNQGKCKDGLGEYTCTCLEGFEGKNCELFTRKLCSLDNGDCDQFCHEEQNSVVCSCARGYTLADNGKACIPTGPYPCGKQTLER
QUANTITY NAME: IC50

>>> reported_result("CCOC(=O)O[C@@H]1C[C@H](C(=O)Nc2ccc(N3CCOCC3=O)cc2)N(C(=O)Nc2ccc(Cl)cc2)C1 [Compound A1]")
"2 nM"
